All figures here come from the nanobody polyreactivity screen of Harvey et al. (2022).

Test: yeast display, Sf9 membrane polyspecificity reagent, FACS + sequencing; frameworks hold sequencing errors
readout type: polyreactivity (PSR sort gate)

QDQLVESGGGLVQAGGSLRLSCAASGLTFLWYNMGWYRPAPGKERELVAGITWSGGSTYYADSVKGRFTISRDNAKNTVYLQMNSLKPEDTAVYYCAASFLWKVTGEYYYWGQGTQVTVSS | high polyreactivity
QVQLVESGGGLVQAGGSLRLSCAASGRIFPPYGMGWYRQAPGKERELVAGITSDGSTNYADSVKGRFTISRDNAKNTVYLQMNSLKPEDTAVYFCAADQGSWYYYPVYYYGGDYWGQGTQVTVSS | low polyreactivity
QVQLVESGGGLVQAGGSLRLSCAASGSTFQFYAMGWYRQAPGKERELVAAIDGSDGDTYYADSVKGRFTISRDNAKNTVYLQMNSLKPEDTAVYYCNADRDALVGYDYDYWGQGTQVTVSS | low polyreactivity
QVQLVESGGGLVQAGGSLRLSCAASGRTFYSNAMGWYRQAPGKERELVAAISRSGGTTYYADSVKGRFTISRDNAKNTVYLQMNSLKPEDTAVYYCNTLRYGTTGKYDYWGQGTQVTVSS | high polyreactivity
QVQLVESGGGLVQAGGSLRLSCAASGGTFQPNAMGWYRQAPGKERELVAAISWSDGSTYYADSVKGRFTISRDNAKNTVYLQMNSLKPEDTAVYYCAADFTYYDSPYRDYNYESWGQGTQVTVSS | low polyreactivity
QVQLVESGGGLVQAGGSLRLSCAASGSTFNSYAMGWYRQAPGKERELVAAITSSVGSTYYADSVKGRFTISRDNAKNTVYLQMNSLKPEDTAVYYCAADYFSYWYFSGYDYWGQGTQVTVSS | low polyreactivity
QVQLVESGGGLVQAGGSLRLSCAASGRTFYNYAMGWYRQAPGKERELVASIRKNGGSTYYADSVKGRFTISRDNAKNTVYLQMNSLKPEDTAVYYCDARYWGISRIFPSKYDYWGQGTQVTVSS | high polyreactivity
EEELVESGGGLVQAGGSLRLSCAASGRTFVYNAMGWYRQAPGTERELVAAITSGDSTYYADSVKGRFTISRDNAKNTVYLQMNSLKPEDTAVYYCATDYSGIFYWYDYWGQGTQVTVSS | low polyreactivity
QVQLVESGGGLVQAGVSLRLSCAASVITFVYYTMGWYRQAPGKERELVAAISQSAVNTYYADSVKGRFTISRDNAKNTVYLQMNSLKPEVTAVYYCNARFRATFTSYGTDYRRRFDYWGQGTQVTVSS | high polyreactivity
QVQLEESGGGLFQAGGSLRLSCAASGSTFYAYAMGWYRQAPGKERELVAAISSDGTNYADSVKGRFTISRDNAKNTVYLQMNSLKPEDTAVYYCAADMLLYSSQDNDYWGQGTLVTVSS | low polyreactivity
QVHLVESGGGLVQAGGSLRLSCAASGSTLSFYAMGWYRQAPGKERELVAAISYSTGTTYYADSVKGRFTISRDNAKNTVYLQMNSLKPEDSAVYYCAARWVWLHSRYDYWGQGTQVTVSS | high polyreactivity
QVQLVESGGGLVQAGGSLRLSCAASGIIFYENAMGWYRQAPGKERELVADITQSGGSTYYADSVKGRFTISRDNAKNTVYLQMNSLKPEDTAVYYCARDGDLWYYKGYGTLFDYWGQGTQVTVSS | low polyreactivity
QVQLVESGGGLVQAGGSLRLSCAASGRIFYKYAMGWYRQAPGKERELVAGITRSGANTYYADSVKGRFTISRDNAKNTVYLQMNSLKPEDTAVYYCAVYIPRGGRSGYWGQGTQVTVSS | high polyreactivity
QVQLVESGGGLVQAGGSLRLSCAASGSTFGYYAMGWYRQAPGKERELVAAITWSGGSTSYADSVKGRFTISRENAKNSVYLQMNSLKPEDTAVYYCAAQYKKGRGAKRTYYGGWLEYCGQGTQVTVSS | low polyreactivity
QVQLVESGGGLVQAGGSLRLSCAASGSTFSYNTMGWYRQAPGKERELVATIDFNGGSTYYADSVKGRFTISRDNAKNTVYLQMNSLKPEDTAVYYCNADRYPYWGYDYWGQGTQVTVSS | low polyreactivity
QVQLVESGGGLVQAGGSLRLSCAASGRTFGENTMGWYRQAPGKERELVASITWSGDSTFYADSVKGRFTISRDNAKNTVYLQMNSLKPEDTAVYYCARDDYYGSYGYDYWGQGTQVTVSS | low polyreactivity
QVQLVESGGGLFQAGGSLRIICAASGSIFGAYAMGWYRQAPGKERELVAGIRRAGDSTYYADSVKGRFTISRDYAKNTVYLLMNCMKPEDTAVYYCAAYLYLEYYYRGQGTQVTVSS | low polyreactivity
QVQLQESGGGLVQAGGSLRLSCAVSGTIFFPLDMGWYRQAPGRELEYVAAIAEGTSTYYADSVKGRFTISRDNAKNTVYPQMYSLKPEDTAVYYCAAYRSTPQQFHYWGQGTQVTVSS | high polyreactivity
QVQLEESGGGLVQAGGSLRLSCAASGFTFYDYAMVWYRQAPGKERELVAAIRRSGTRTYYADSVKGRFTISRDNAKNTVYLQINSLKPEDTAVYYCAARYSYTHQRDYWGQGTLVTVSS | high polyreactivity
QVQLVESGGGLVQAGGSLRLSCAASGSTFYDYAMGWYRQAPGKERELVASISISGGSTYADSVKGRFTISRDNAKNTVYLQMNSLKPEDTAVYYCAADSWGIGYGPDYEYWGQGTQVTVSS | low polyreactivity
QVQLVESGGGLVQAGGSLRLSCAASGFIFSRYFMGWYRQAPGKERELVAAISWNVGSTYYADSVKGRFTISRDNAKNTVYLQMNSLKPEDTAVYYCAARDRRSVTMDYWGHGTQVTVSS | high polyreactivity

* * *

Experiment: yeast display, Sf9 membrane polyspecificity reagent, FACS + sequencing; frameworks hold sequencing errors
readout type: polyreactivity (PSR sort gate)

QVQLVESGGGLVQAGGSLRLTCAASGGTIFPNAMGWYRQAPGKEMELVATITSSDTTNYADSVKGRFTISRDNAMNTVYLQMNSLKTEDTAVYYCDASFKLRYWDYYYWGQGTQVTVSS | low polyreactivity
QVQLVESGGALVQAGGSLRLSCAASGYTSILYAMGWYRQAPGKEMELVASITKSGDDTYYADSVKGRFTISRDNAKNTVYLQMNSLKPEDTAVYYCAAEYTYGDYSYVWYDYWGQGTQVTVSS | high polyreactivity
QVQLVESGGGLVQAGGSLRLSCAASGRILRGNAMGGYRQAPGKERELVADINYSDGSTYYADSVKGRFTISRDNAKNTVYLQMNSLKPEDTAVYYCAKKNPLVFTSGMDYWGQGTQVTVSS | low polyreactivity
QVQLGESGGGLVQAGGSLRLICAASGSTFYYNAMGWSRQAPGKEWELVAAITYSGGDTYYADSVKGRFTMSRDNAKNTVYLQMNSLKPEDTAVYYCAAEYYWYNVYTGHLWYDYWGQGTQVTVSS | high polyreactivity
QVQLQESGGGLVQAGGSLRPRCAPAGTIFLSVNMGWYRHAPGEEREFVASITQGATTNYADSLIGRFTISRDNAKNTVYLQMNCQKPEDTAVYYCAAYPRFYGGKYGEYGYWGQGTQVTVSS | high polyreactivity
QFQLLESGGGLVQAGGSLRLSCAASGSIFTRNAIGWYRQAPGSERELVAAITSAGSTSYADSVKGRFTISRDNAKNTVYLQMNSQKPEDTAVYYCNTVPGRYRTFDYWGQGTQVTVSS | high polyreactivity
QVQLVESGGCLVQAGGSLRFSCAASGSTFGWYAMGWYRHAPGKERELVAAITSVGSTYYADYVKGRFRISRDNAKNTVYLQMNSLKPEDTAVYYCAKRFGSGWAWFGYWGQGTQVTVSS | low polyreactivity
QVQLVESGGGLVQAGGSLRLSCAASGSTFYYNAMGWYRQAPGKERELVADISWRGGITYYADSVKGRFTISRDNAKNTVYLQMNSLKPEDTAVYYCNADAESFDDGYWGQGTQVTVSS | low polyreactivity
PVQLQESGGGLVQAGGSLRLSCAASGNIFDADIMGWYRQAPGKESELVACIADGGSTNYAESVKGRFTISRDNAKNTVYLQMNRLKPEDTAVYYCAAIAYPDIPTCFDYDSDYFFRGQGTQVTVSS | low polyreactivity
QVQLVESGGGLVQAGGSLRLSCAASGSIVPTYAMGWYRQAPGKERELVAAIRSGSNTYYADSVKGRFTISRDNAKNTVYLQMNSLKPEDTAVYYCNVGPQRKYPGRRTVPFGYWGQGTQVTVSS | low polyreactivity
QVQLVESGGGLVQAGGSLRLSCAASGRIIGYYAMGWYRQAPGKERELVAAISRRGGSTYYADSVKGRFTISRDNAKNTVYLQMNSLKPEDTAVYYCNADRVLTRPRYDYWGQGTQVTVSS | low polyreactivity

* * *

Assay: yeast display, Sf9 membrane polyspecificity reagent, FACS + sequencing; frameworks hold sequencing errors
readout type: polyreactivity (PSR sort gate)

QVQLVESGGGLVPAGGSLRLSCAASGYTFQYNDRGWYRHAPGKETELVAGISIGGSTNYADSVKGRFTISRDNAKHTVYLQMNSLKPEDTAVYYCAARTLWFPGPTSTTVGYKDGYWGQGTQVTVSS | low polyreactivity
QVQLVESGGGLVQAGASLRLSCAASGRTLTGYAMGWYRQAPGKERELVAAITWRDSTYYADSVKGRFTISRDNAKNTVYLQMNSLKPEDTAVYYCNADNATYFVYEFNYWGQGTQVTVSS | low polyreactivity
QVQLVESGGGIVQAGGSLRLSCAASGRTTSVYAIGWYRQAPGKERELVAAINRSDGGTYYADSVKGRFTISRDNAKNTVYLQMNRLQPEDTAVYYCNAVVLYGWYGRRYSSRLDYWGQGTQVTVSS | high polyreactivity
QVQLVESGGGLVQAGGSLRLSCAASGSTFRLYAMGWYRQAPGKEREFVAAISFRGGSTYYADSVKGRFTISRDNAKNTVYLQMNSLKPEDTAVYYCNARVRVRLGRNWSSYYYWGQGTQVTVSS | high polyreactivity
QVQLVDSGGGLVQAGGSLRLRCAASGITYSYYTKGWYRQAPGKERDLVAGITRSGSTYYADSVKGRFTISRDNAYNTVYLQMNSLKPEDTAVYYCNARARGAYNRPNYPRYYYWGQGTQVTVSS | high polyreactivity
QVQLVESGGGLVQAGGSLRLSCAASGSILCLNAMGWYRQAPGKERELVADITRGGSTYYADSVKGRFTISRDNAKNTVYLQMNSLKPEDTAVYYCAADAYTGQIPYYYFEHYYWGQGTQVTVSS | high polyreactivity
QVQLVESGGGLVQAGGSLRLSCAASGFTFYVYVMGWYRPAPGKERELVAGISRGGSTYYADSVKGRFTISRDTAKNTVYLQMNSLKPEDTAVYYCNARRAWSSTYGYWGQGTQVTVSS | high polyreactivity
QVQLVESGVGLVQAGGSLRLSSAASGFTFIYYPMGWYRPAPGKERELVAAITSGGNTYYADSVKGRFTISRDNAKNSVYFQMNSLKPEDTAVYYCNKVPHREWVGGYDYWGQGTQVTVSS | low polyreactivity
QVQLVESGGGLVQAGGSLRLSCAASGSTLGYYAMGWYRQAPGKERELVAAISKGGGSTYYADSVKGRFTISRDNAKNTVYLQMNSLKPEETAVYYCAAYSTSWSRYDYWGQGTQVTVSS | high polyreactivity
QFQIVDSVGGLVQAGGSLRLSCAASGRTFSYYSLGWYREATGKERELVASIRKSGASTYYADSVKGRFTISRDNAKNTVYLQMNSLKPEDTAVYYCNTAGWSFYSGRYDYWGQGTQVTVSS | high polyreactivity
QVQLVESGGGLVQAGGSLRLSSAASGSIFELNAMGWYRQAPGKERELVASISFRGTSTYYADSVKGRFTISRDYAKNTVYLKMNSLKPDDNAVYYCAADTTFPFSYWGQGTQVTVSS | low polyreactivity
